Data origin: the supplement of paper PMC13380429

Items are presented alongside their recorded SARS-CoV-2 infection rate.
# Test system: Vero E6 infected with SARS-CoV-2
# experiment_notes: SARS-CoV-2 infection rate relative to infected DMSO; higher = more infection, active = 60 or less
# experimental_conditions: 24 h
measured_attribute: SARS-CoV-2 infection rate

[[record]]
compound = "CO[C@@]12[C@H](COC(N)=O)C3=C(C(=O)C(C)=C(N)C3=O)N1C[C@@H]1N[C@@H]12 [mitomycin-C] (10 µM)"
measured_attribute = "SARS-CoV-2 infection rate"
reported_value = "104% (inactive)"

[[record]]
compound = "CN(C)CC[C@@]1(c2ccc(Cl)cc2)Cc2ccccc2C(=O)O1 (racemic) (10 µM)"
measured_attribute = "SARS-CoV-2 infection rate"
reported_value = "106% (inactive)"

[[record]]
compound = "CCC(=O)c1ccc(OCC(O)CN2CCN(c3ccccc3)CC2)cc1 (configuration not stated) [centpropazine] (10 µM)"
measured_attribute = "SARS-CoV-2 infection rate"
reported_value = "93.5% (inactive)"

[[record]]
compound = "CC(C)(O)C(=O)N1CCN(c2ccc(C(F)(F)F)c(C3=C(c4c[nH]c5ccccc45)C(=O)NC3=O)c2)CC1 (0.833333 µM)"
measured_attribute = "SARS-CoV-2 infection rate"
reported_value = "108% (inactive)"

[[record]]
compound = "Cc1c(NC(=O)OC[C@@H]2COCCN2)cn2ncnc(Nc3ccc4c(cnn4Cc4cccc(F)c4)c3)c12 (0.833333 µM)"
measured_attribute = "SARS-CoV-2 infection rate"
reported_value = "102% (inactive)"

[[record]]
compound = "CC(C)n1nccc1-c1ncccc1COc1cccc(O)c1C=O [voxelotor] (10 µM)"
measured_attribute = "SARS-CoV-2 infection rate"
reported_value = "102% (inactive)"

[[record]]
compound = "Cn1c(N2CCCCS2(=O)=O)nc(C(=O)NCc2ccc(F)cc2)c(O)c1=O (10 µM)"
measured_attribute = "SARS-CoV-2 infection rate"
reported_value = "104% (inactive)"


* * *

Items are presented alongside their recorded inhibition of SARS-CoV-2 cytopathic effect.
# Test system: Vero E6 infected with SARS-CoV-2
# experiment_notes: inhibition of SARS-CoV-2 cytopathic effect; higher = more antiviral protection, active = above 15
# experimental_conditions: 833.33 nM; 48 h
measured_attribute: inhibition of SARS-CoV-2 cytopathic effect (%)

[[record]]
compound = "C[C@@H]1CCC[C@H](C)N1NC(=O)c1ccc(Cl)c(S(N)(=O)=O)c1 [clopamide]"
reported_value = 5.88

[[record]]
compound = "COCCOc1ccc(N2CCN(CCn3ncc4c3nc(N)n3nc(-c5ccco5)nc43)CC2)cc1"
reported_value = 0.67

[[record]]
compound = "Cc1[nH]c(/C=C2\\C(=O)Nc3ccc(F)cc32)c(C)c1C(=O)NCCN1CCCC1"
reported_value = -1.29

[[record]]
compound = "CCC(=O)O[C@@H]1CC(=O)O[C@H](C)C/C=C/C=C/[C@H](O)[C@H](C)C[C@H](CC=O)[C@H](O[C@@H]2O[C@H](C)[C@@H](O[C@H]3C[C@@](C)(O)[C@@H](OC(=O)CC)[C@H](C)O3)[C@H](N(C)C)[C@H]2O)[C@H]1OC"
reported_value = -0.5

[[record]]
compound = "CCn1cc(C(=O)O)c(=O)c2cnc(N3CCNCC3)nc21"
reported_value = -0.86

[[record]]
compound = "C=C(C)[C@@H]1CC[C@]2(C(=O)O)CC[C@]3(C)[C@H](CC[C@@H]4[C@@]5(C)CC[C@H](OC(=O)CC(C)(C)C(=O)O)C(C)(C)[C@@H]5CC[C@]43C)[C@@H]12"
reported_value = 0.6

[[record]]
compound = "NNC(=O)CSc1nc2scc(-c3ccccc3)c2c(=O)n1-c1ccccc1"
reported_value = -2.58

[[record]]
compound = "C[C@@H]1COCCN1c1cc(=O)n2c(n1)N(Cc1cncc(Cl)c1)[C@H](C(F)(F)F)CC2"
reported_value = 7.24

[[record]]
compound = "Cc1c(O)c(=O)ccn1C"
reported_value = 3.35

[[record]]
compound = "CN(C)CC(=O)Nc1ccc2[nH]c(=O)c3ccccc3c2c1"
reported_value = 5.19

[[record]]
compound = "CC(C)(C)c1ccc(-c2nc3ccccc3[nH]2)cc1"
reported_value = 3.96

[[record]]
compound = "Nc1nccc(/C=C/c2ccccc2)n1"
reported_value = 0.59

[[record]]
compound = "CC12CCC(C(Br)C1=O)C2(C)C (stereo not drawn)"
reported_value = 1.85


* * *

Items are presented alongside their recorded inhibition of SARS-CoV-2 cytopathic effect.
# Test system: Vero E6 infected with SARS-CoV-2
# experiment_notes: inhibition of SARS-CoV-2 cytopathic effect; higher = more antiviral protection, active = above 15
# experimental_conditions: 8.33 nM; 48 h
measured_attribute: inhibition of SARS-CoV-2 cytopathic effect (%)

[[record]]
compound = "CC(CCc1ccc(O)cc1)NCC(O)c1ccc(O)cc1 (centres undefined)"
reported_value = -0.49

[[record]]
compound = "CCCCc1oc2ccc(NS(C)(=O)=O)cc2c1C(=O)c1ccc(OCCCN(CCCC)CCCC)cc1"
reported_value = 1.28

[[record]]
compound = "COc1ccc(C(=O)NCc2cccnc2)cc1C(=O)NCc1cccnc1 [picotamide]"
reported_value = 2.62

[[record]]
compound = "CCN(CC)CCOC(=O)C(Cc1cccc2ccccc12)CC1CCCO1 (mixture of isomers)"
reported_value = -0.29

[[record]]
compound = "Cn1c(NC[C@@H](N)Cc2ccccc2)nc(-c2ccncc2)c(-c2ccc3ccccc3c2)c1=O"
reported_value = 0.05

[[record]]
compound = "Cc1nccn1CCC(C(N)=O)(c1ccccc1)c1ccccc1"
reported_value = -0.55

[[record]]
compound = "Cc1c(C(=O)N2CCOc3ccc(-c4ccc(N)nc4)cc3C2)ccc(S(C)(=O)=O)c1F"
reported_value = 1.25

[[record]]
compound = "COC(=O)Nc1ccc2[nH]cc(CCNC(C)=O)c2c1"
reported_value = -0.32

[[record]]
compound = "CC12CCC(C(Br)C1=O)C2(C)C (centres undefined)"
reported_value = 0.99

[[record]]
compound = "COc1ccccc1N1CCN(CCCNc2cc(=O)n(C)c(=O)n2C)CC1"
reported_value = -1.36

[[record]]
compound = "O=C(O)c1cnn(-c2nc3cc(OC(F)(F)F)c(Cl)cc3[nH]2)c1"
reported_value = 1.44

[[record]]
compound = "CCN1CCN(c2cc3c(cc2F)c(=O)c(C(=O)O)cn3C2CC2)CC1"
reported_value = 4.7

[[record]]
compound = "Cc1nc(-c2ccc(OCC(C)C)c(C#N)c2)sc1C(=O)O"
reported_value = -0.46

[[record]]
compound = "O=C(N[C@H](CO)[C@H](O)c1ccc([N+](=O)[O-])cc1)C(Cl)Cl"
reported_value = -0.6

[[record]]
compound = "O=C(O)[C@H](Cc1c[nH]c2ccccc12)N1C(=O)c2ccccc2C1=O"
reported_value = 3.8

[[record]]
compound = "O=C(NCCN1CCCCC1)c1ccc(I)cc1 [N-[2-(piperidinylamino)ethyl]-4-iodobenzamide]"
reported_value = 2

[[record]]
compound = "CCC(CC)(NC(=O)C(C)C)C(=O)N[C@@H](CCCNC(=N)N)C(=O)NC1(C(=O)NC(c2ccc(F)cc2)c2ccc(F)cc2)CCCC1"
reported_value = -1.15

[[record]]
compound = "O=C(NCC1CCCCN1)c1cc(OCC(F)(F)F)ccc1OCC(F)(F)F (centres undefined) [flecainide]"
reported_value = 1.45

[[record]]
compound = "O=C(Nc1ncc(SCCN2CCCC2)s1)[C@]1(c2ccc(S(=O)(=O)C3CC3)cc2)C[C@H]1C1CCCCC1"
reported_value = -0.96

[[record]]
compound = "OC[C@@H](O)[C@H]1O[C@@H]2O[C@H](C(Cl)(Cl)Cl)O[C@@H]2[C@H]1O"
reported_value = 3.01

[[record]]
compound = "OCCC#Cc1nc(-c2ccc(F)cc2)c(-c2ccncc2)n1CCCc1ccccc1"
reported_value = -1.75

[[record]]
compound = "CNC(=O)[C@@H](NC(=O)[C@H](CC(C)C)[C@H](O)C(=O)NO)C(C)(C)C"
reported_value = 2.33

[[record]]
compound = "N=C(N)NCCSSCCNC(=N)N [guanidinoethyldisulfide-bicarbonate]"
reported_value = -2.77

[[record]]
compound = "COc1ccc(-c2cc(=O)c3c(O)cc(O)cc3o2)cc1O"
reported_value = -0.9


* * *

# Test system: Vero E6 infected with SARS-CoV-2
# experiment_notes: SARS-CoV-2 infection rate relative to infected DMSO; higher = more infection, active = 60 or less
# experimental_conditions: 24 h
Items are presented alongside their recorded SARS-CoV-2 infection rate.
measured_attribute: SARS-CoV-2 infection rate (%)

[[record]]
compound = "CC(C)CN(C[C@@H](O)[C@H](Cc1ccccc1)NC(=O)O[C@H]1CCOC1)S(=O)(=O)c1ccc(N)cc1 [amprenavir] (10 µM)"
tested_target = "Vero E6 infected with SARS-CoV-2"
reported_value = 110

[[record]]
compound = "CC1(C)CC(O)CC(C)(C)N1[O] [tempol] (10 µM)"
tested_target = "Vero E6 infected with SARS-CoV-2"
reported_value = 97

[[record]]
compound = "CNCCCN1c2ccccc2CCc2ccccc21 [desipramine] (10 µM)"
tested_target = "Vero E6 infected with SARS-CoV-2"
reported_value = 81

